Source of measurements: patent US6645996B1

Assay: Solubility (analysis data)
Type: physicochemical
parameter.measured: Solubility in ethyl acetate, chloroform and dimethyl sulfoxide

CCCC(C(=O)c1cc(CC(C)C)c(O)c(C(C)=O)c1O)C1CC(O)C2(OC2CC)C(O)O1 (stereo not drawn)
soluble
CCCC(C(=O)c1cc(C(OC)C(C)C)c(O)c(C=O)c1O)C1CC(O)C2(OC2CC)C(O)O1 (single isomer, unassigned) [VD1207 B]
soluble
CCC1OC12C(O)CC(C(CC(C)C)C(=O)c1cc(C(=O)C(C)C)c(O)cc1O)OC2O (single isomer, unassigned) [VD1207 A2]
soluble

====

Assay: Safety of VD1207 analogues, intraperitoneal administration over 4 days
Format: in vivo
Set-up: key: —: “-” indicates no abnormality; “↑” and “↓” indicate an increase and a decrease, respectively; “↑” and “↓” indicate an increase and a decrease, respectively
Conditions: 2 mg/kg i.p. 4 days
parameter.measured: Blood (WBC)

Some entries whose results are on file:
CCCC(C(=O)c1cc(CC(C)C)c(O)c(C=O)c1O)C1CC(O)C2(OC2CC)C(O)O1 (centres unmarked)
—
CCC1OC12C(O)CC(C(CC(C)C)C(=O)c1cc(C(OC)C(C)C)c(O)c(C=O)c1O)OC2O (single isomer, unassigned) [VD1207 E]
↓
CCC1OC12C(O)CC(C(CC(C)C)C(=O)c1cc(CC(C)C)c(O)c(C=O)c1O)OC2O (centres unmarked)
↓
CCC1OC12C(O)CC(C(CC(C)C)C(=O)c1cc(C(OC)C(C)C)c(O)c(C=O)c1O)OC2O (single isomer, unassigned) [VD1207 F]
↓

Alright, here's another compound for you.
I have this compound here, CCCC(C(=O)c1cc(C(OC)C(C)C)c(O)c(C=O)c1O)C1CC(O)C2(OC2CC)C(O)O1 (single isomer, unassigned) , and I need its recorded Blood (WBC).
—
